Settings: in acetone, 293.2 K
METRIC: solubility (mole fraction)

Retrieve solubility (mole fraction) measured for `CC1(C)O[C@H]2CC(=O)OC[C@]23[C@H]2CC[C@@]4(C)[C@H](c5ccoc5)OC(=O)[C@H]5O[C@]54[C@]2(C)C(=O)C[C@@H]13` and print it. 0.00465

###

Conditions: in water, 298.2 K
METRIC: solubility (mole fraction)

Retrieve solubility (mole fraction) measured for `CC1(C)O[C@H]2CC(=O)OC[C@]23[C@H]2CC[C@@]4(C)[C@H](c5ccoc5)OC(=O)[C@H]5O[C@]54[C@]2(C)C(=O)C[C@@H]13` and print it. 5.97e-07

###

Conditions: in water, 288.2 K
METRIC: solubility (mole fraction)
Kindly provide the number alone.

Retrieve solubility (mole fraction) measured for `CC1(C)O[C@H]2CC(=O)OC[C@]23[C@H]2CC[C@@]4(C)[C@H](c5ccoc5)OC(=O)[C@H]5O[C@]54[C@]2(C)C(=O)C[C@@H]13` and print it. 2.37e-07

###

Settings: in methanol, 293.2 K
METRIC: solubility (mole fraction)
Kindly provide the number alone.

Retrieve solubility (mole fraction) measured for `CC1(C)O[C@H]2CC(=O)OC[C@]23[C@H]2CC[C@@]4(C)[C@H](c5ccoc5)OC(=O)[C@H]5O[C@]54[C@]2(C)C(=O)C[C@@H]13` and print it. 9.2e-05

###

Details: in water, 308.2 K
METRIC: solubility (mole fraction)
Kindly provide the number alone.

Retrieve solubility (mole fraction) measured for `CC1(C)O[C@H]2CC(=O)OC[C@]23[C@H]2CC[C@@]4(C)[C@H](c5ccoc5)OC(=O)[C@H]5O[C@]54[C@]2(C)C(=O)C[C@@H]13` and print it. 1.04e-06

###

Settings: in acetone, 308.2 K
METRIC: solubility (mole fraction)
Kindly provide the number alone.

Retrieve solubility (mole fraction) measured for `CC1(C)O[C@H]2CC(=O)OC[C@]23[C@H]2CC[C@@]4(C)[C@H](c5ccoc5)OC(=O)[C@H]5O[C@]54[C@]2(C)C(=O)C[C@@H]13` and print it. 0.00497

###

Conditions: in water, 283.2 K
METRIC: solubility (mole fraction)

Retrieve solubility (mole fraction) measured for `CC1(C)O[C@H]2CC(=O)OC[C@]23[C@H]2CC[C@@]4(C)[C@H](c5ccoc5)OC(=O)[C@H]5O[C@]54[C@]2(C)C(=O)C[C@@H]13` and print it. 1.17e-07

###

Conditions: in methanol, 283.2 K
METRIC: solubility (mole fraction)
Kindly provide the number alone.

Retrieve solubility (mole fraction) measured for `CC1(C)O[C@H]2CC(=O)OC[C@]23[C@H]2CC[C@@]4(C)[C@H](c5ccoc5)OC(=O)[C@H]5O[C@]54[C@]2(C)C(=O)C[C@@H]13` and print it. 7.08e-05

###

Conditions: in water, 303.2 K
METRIC: solubility (mole fraction)
Kindly provide the number alone.

Retrieve solubility (mole fraction) measured for `CC1(C)O[C@H]2CC(=O)OC[C@]23[C@H]2CC[C@@]4(C)[C@H](c5ccoc5)OC(=O)[C@H]5O[C@]54[C@]2(C)C(=O)C[C@@H]13` and print it. 8.3e-07

###

Settings: in acetone, 313.2 K
METRIC: solubility (mole fraction)
Kindly provide the number alone.

Retrieve solubility (mole fraction) measured for `CC1(C)O[C@H]2CC(=O)OC[C@]23[C@H]2CC[C@@]4(C)[C@H](c5ccoc5)OC(=O)[C@H]5O[C@]54[C@]2(C)C(=O)C[C@@H]13` and print it. 0.00516

The origin of these recorded values is BigSolDB 2.1.
